Entries and their measured inhibition follow.
target: RAF proto-oncogene serine/threonine-protein kinase (Homo sapiens) (UniProt P04049); settings: at 1 µM;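 note: values are the mean percent inhibition of CRAF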
Sequence (P04049 whole entry): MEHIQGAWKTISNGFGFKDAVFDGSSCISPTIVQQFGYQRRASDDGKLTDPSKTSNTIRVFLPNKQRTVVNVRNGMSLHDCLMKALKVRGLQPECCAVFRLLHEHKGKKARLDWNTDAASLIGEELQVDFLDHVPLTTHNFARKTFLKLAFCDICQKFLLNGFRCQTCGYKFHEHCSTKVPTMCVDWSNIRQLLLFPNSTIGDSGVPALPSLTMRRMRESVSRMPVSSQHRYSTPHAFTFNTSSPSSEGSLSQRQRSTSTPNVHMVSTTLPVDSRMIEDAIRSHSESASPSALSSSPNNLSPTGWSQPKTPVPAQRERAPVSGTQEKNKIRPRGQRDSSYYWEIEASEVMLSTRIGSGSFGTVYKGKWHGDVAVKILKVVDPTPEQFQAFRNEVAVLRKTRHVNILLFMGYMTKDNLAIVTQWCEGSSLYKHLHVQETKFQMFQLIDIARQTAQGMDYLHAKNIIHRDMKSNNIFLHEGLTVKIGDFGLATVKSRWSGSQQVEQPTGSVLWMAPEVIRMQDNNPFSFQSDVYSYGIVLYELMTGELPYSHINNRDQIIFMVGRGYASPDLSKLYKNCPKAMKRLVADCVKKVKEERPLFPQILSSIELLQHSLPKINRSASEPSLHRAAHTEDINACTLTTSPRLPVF
EXPERIMENTAL ENDPOINT: inhibition (%)

# SMILES RECORD, MEASURED NUMBER
records = [
    ("Cc1ccc(-c2cc3c(NC(=O)C4CC4)ncnc3o2)cc1", -2.51),
    ("N#Cc1ccc2c(-c3ccnc(NC4CC4)n3)c(-c3ccc(F)cc3)nn2c1", -2.54),
    ("CCS(=O)(=O)c1ccc(OC)c(Nc2ncc(-c3cccc(F)c3)o2)c1", -3.37),
    ("CNC(=O)c1ncccc1Nc1nc(Nc2cc3c(cc2OC)CCCN3C(=O)CN(C)C)nc2[nH]ccc12", -9.95),
    ("COc1cc(N2CCN(C(C)C)CC2)ccc1Nc1nc(Nc2cccc(F)c2C(=O)O)c2cc[nH]c2n1", 0.19),
    ("Cc1cc(O)cc(C)c1/C=C/c1cncc(C(N)=O)c1", 5.31),
]

----------
molecular target: cAMP-dependent protein kinase catalytic subunit alpha (Homo sapiens) (UniProt P17612); conditions: at 1 µM;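 note: mean percent inhibition of PKA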
Entries and their measured inhibition follow.

# COMPOUND, TARGET UNDER TEST, inhibition
rows = [
    ("O=C1Nc2ccccc2/C1=C1\\CCc2cc(O)ccc21", "cAMP-dependent protein kinase catalytic subunit alpha (Homo sapiens) (UniProt P17612)", "4.57%"),
    ("CN1CCC(n2cnc(-c3ccc(F)cc3)c2-c2ccnc(NCCO)n2)CC1", "cAMP-dependent protein kinase catalytic subunit alpha (Homo sapiens) (UniProt P17612)", "4.71%"),
    ("CC1=C(C(=O)Nc2ccc3[nH]ncc3c2)C(c2ccc(F)cc2)N=C(c2ccc(C(F)(F)F)nc2)N1 (stereo not drawn)", "cAMP-dependent protein kinase catalytic subunit alpha (Homo sapiens) (UniProt P17612)", "20.9%"),
]

----------
biological target: Ephrin type-A receptor 4 (Homo sapiens); details: at 1 µM
Description: GSK_PKIS: EPHA4 mean inhibition at 1 uM [Nanosyn]

# SMILES RECORD, TARGET UNDER TEST, UNITS SYMBOL, inhibition
measured = [
    ("O=C(O[C@H]1CN[C@H](C#Cc2cc3ncnc(Nc4ccc5c(cnn5Cc5ccccc5)c4)c3s2)C1)N1CCOCC1", "Ephrin type-A receptor 4 (Homo sapiens)", "%", 1.79),
    ("COc1ccc(Nc2ncc(-c3ccccc3)o2)cc1OC", "Ephrin type-A receptor 4 (Homo sapiens)", "%", 1.61),
    ("COc1cc2c(cc1Nc1nc(Nc3cccc(F)c3C(N)=O)c3cc[nH]c3n1)N(C(=O)CN1CCN(C(C)C)CC1)CC2", "Ephrin type-A receptor 4 (Homo sapiens)", "%", 4.41),
    ("Fc1ccc(Nc2nccc(-c3c(-c4ccc(C(F)(F)F)cc4)nn4ncccc34)n2)cc1F", "Ephrin type-A receptor 4 (Homo sapiens)", "%", 1.99),
    ("Cc1nnc(-c2cccc(-c3ccc(C(=O)NCC4CC4)cc3)c2)o1", "Ephrin type-A receptor 4 (Homo sapiens)", "%", 10.8),
]

----------
Entries and their measured inhibition follow.
target: Calcium/calmodulin-dependent protein kinase type IV (Homo sapiens) (UniProt Q16566); conditions: at 0.1 µM;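 note: each value is a mean inhibition of CAMK4, part of the GSK PKIS kinase screening panel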
Sequence (Q16566 whole entry): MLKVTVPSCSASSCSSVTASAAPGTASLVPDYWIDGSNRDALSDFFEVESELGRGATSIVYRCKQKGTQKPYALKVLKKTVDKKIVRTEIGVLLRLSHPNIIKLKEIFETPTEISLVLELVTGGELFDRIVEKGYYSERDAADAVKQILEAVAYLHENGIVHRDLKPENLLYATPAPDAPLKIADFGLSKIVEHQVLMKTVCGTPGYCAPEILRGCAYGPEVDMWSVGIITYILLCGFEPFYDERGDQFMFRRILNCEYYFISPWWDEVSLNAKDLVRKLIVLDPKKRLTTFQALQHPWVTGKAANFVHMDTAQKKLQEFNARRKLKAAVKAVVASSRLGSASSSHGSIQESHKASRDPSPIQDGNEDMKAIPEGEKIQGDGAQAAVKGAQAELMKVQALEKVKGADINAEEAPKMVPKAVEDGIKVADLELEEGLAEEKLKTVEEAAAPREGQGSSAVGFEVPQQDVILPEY

# SMILES RECORD, inhibition [%]
measured = [
    ("CS(=O)(=O)Nc1ccc(-c2cc(-c3ccccc3)cc(C(N)=O)c2N)cc1", -3.34),
    ("CC(C)c1ccc(-c2cc(-c3c[nH]nc3-c3ccccn3)ccn2)cc1", 0.73),
    ("CN(C)CCNC(=O)Nc1ccc(N(C)c2ccnc(Nc3ccc(CS(C)(=O)=O)cc3)n2)cc1", 0.83),
    ("COc1cc2c(cc1Nc1nc(Nc3cccc(F)c3C(N)=O)c3cc[nH]c3n1)N(C(=O)CN1CCN(C(C)C)CC1)CC2", 2.31),
    ("NC(=O)c1ccc2c(-c3ccnc(NCCCO)n3)c(-c3ccc(F)cc3)nn2c1", 0.65),
    ("O=C1Nc2ccccc2/C1=C1\\CCc2cc(O)ccc21", 0.46),
    ("CCn1c(-c2nonc2N)nc2cncc(C(=O)NCCNC)c21", -2.59),
    ("Cc1cc(O)cc(C)c1/C=C/c1cncc(C(=O)OC(C)(C)C)c1", 0.08),
    ("CN1CCC(n2cnc(-c3ccc(F)cc3)c2-c2ccnc(NCCO)n2)CC1", -3.49),
    ("O=C(Nc1n[nH]c2nnc(-c3cccnc3)cc12)C1CC1", 1.28),
    ("O=C(O[C@H]1CN[C@H](C#Cc2cc3ncnc(Nc4ccc5c(ccn5Cc5cc(F)ccc5F)c4)c3s2)C1)N1CCOCC1", 0.33),
    ("COc1c(C(N)=O)cc(-c2ccc(Cl)cc2)cc1-c1ccc(S(N)(=O)=O)cc1", -0.13),
    ("CNC(=O)c1cncc(/C=C/c2ccccc2C)c1", -1.31),
    ("CCCNc1cccc(-n2ncc3c(N/N=C/c4ccncc4)ncnc32)c1", -2.8),
    ("FC(F)(F)CNc1nccc(-c2cnn3ncccc23)n1", -0.09),
    ("COc1cccc(-n2ncc3c(N/N=C/c4ccc(C(=O)NCCN(C)C)cc4)ncnc32)c1", 0.48),
    ("CCN1CCC(C(=O)Nc2n[nH]c3nnc(-c4cccc(F)c4F)cc23)CC1", 0.3),
    ("NS(=O)(=O)c1ccc(N/N=C2\\C(=O)Nc3ccc(C(=O)NCc4ccncc4)cc32)cc1", -2.17),
]
